From: patent US7998940B2

tested on: full length human vWF (SEQ ID NO 7); test: dot blot KD determination and extent of binding, full length human vWF; details: Phase 3 modification; extent of aptamer binding at 100 nM full length human vWF;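 note: dot blot binding of aptamers to full length human vWF across a protein titration, incubated 30 minutes at room temperature in 1x DPBS with BSA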
Oligonucleotides are written 5' to 3', each unit as a sugar letter and its base; * is a phosphorothioate linkage, no mark a phosphodiester; rarer units and linkages stand in square brackets, end groups in braces. Plain capitals give the bases only. [invdT] = inverted (3'-3') thymidine; d = 2'-deoxy (DNA); m = 2'-O-methyl
Each entry below carries its reported % binding @ 100 nM vWF.
API: value field is a number in %; no unit string.

Guide cases for % binding @ 100 nM vWF, answers given:
ARC1369: ARC1361 with single phosphorothioate phosphate backbone modification (mGmCmGmUdGdCdAmGmUmGmCmCmUmUmCmGmGmCdCmGdT*mGdCdGdGdTmGmCdCmUdCdCmGmUdCmAmCmGmC[invdT]; aptamer) = 26.2
mGmCmGmUdGdCdAmGmUmGmCmCmUmUmCmGmGmCdCmG-s-TmGdCdGdGTmGmCdCmUdCdCmGmUdCmAmCmGmC-3T (GCGUGCAGUGCCUUCGGCCGTGCGGTGCCUCCGUCACGC; sugars from the 5' end mmmmdddmmmmmmmmmmmdmdmddddmmdmddmmdmmmm, [invdT] at 3' end, backbone not given here) [ARC1368] = 38.2

Dear colleague, I am looking for the recorded % binding @ 100 nM vWF of the following substance: ARC1372: ARC1361 with single phosphorothioate phosphate backbone modification (mGmCmGmUdGdCdAmGmUmGmCmCmUmUmCmGmGmCdCmGdTmGdCdG*dGdTmGmCdCmUdCdCmGmUdCmAmCmGmC[invdT]; aptamer)
35.2

Dear colleague, I am looking for the recorded % binding @ 100 nM vWF of the following substance: ARC1379: ARC1361 with single phosphorothioate phosphate backbone modification (mGmCmGmUdGdCdAmGmUmGmCmCmUmUmCmGmGmCdCmGdTmGdCdGdGdTmGmCdCmUdCdC*mGmUdCmAmCmGmC[invdT]; aptamer)
31.3
